Biological target: Nrf2-Keap1 complex (Homo sapiens, UniProt Q14145)
Sequence (Q14145 whole entry, one chain of several): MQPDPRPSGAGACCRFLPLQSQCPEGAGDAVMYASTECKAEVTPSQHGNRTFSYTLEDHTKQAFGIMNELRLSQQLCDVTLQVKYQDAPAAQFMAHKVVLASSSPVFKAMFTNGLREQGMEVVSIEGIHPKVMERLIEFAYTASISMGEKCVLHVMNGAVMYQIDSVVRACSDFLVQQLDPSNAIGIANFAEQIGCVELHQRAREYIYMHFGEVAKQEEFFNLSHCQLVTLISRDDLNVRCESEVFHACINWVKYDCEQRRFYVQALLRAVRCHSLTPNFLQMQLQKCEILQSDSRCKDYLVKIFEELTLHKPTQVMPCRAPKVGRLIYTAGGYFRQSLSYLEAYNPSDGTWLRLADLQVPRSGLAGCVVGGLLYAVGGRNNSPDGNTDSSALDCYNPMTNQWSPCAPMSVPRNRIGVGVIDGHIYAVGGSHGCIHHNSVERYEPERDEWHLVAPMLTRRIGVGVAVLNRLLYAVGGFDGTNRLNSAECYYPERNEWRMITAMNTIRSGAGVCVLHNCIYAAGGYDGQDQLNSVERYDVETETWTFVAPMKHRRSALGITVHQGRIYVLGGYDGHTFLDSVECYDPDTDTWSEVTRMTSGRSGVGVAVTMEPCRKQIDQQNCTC
Experiment: cell-based
Format: cell-based
Details: Table 2; 200 nL compound; screen run at 16 and 32 μM, 3 hr
Endpoint label: 200 nL (luminescence)

INSERT INTO assay_data (compound, endpoint_label, reported) VALUES
  ('CC(=O)O[C@H]1CCC2(C)C3=C(CCC2C1(C)C)[C@@]1(C)CC[C@@H](C(C)CCC=C(C)C)[C@]1(C)CC3 (stereo partly shown) [EUPHOLACETATE]', '200 nL (luminescence)', 2020),
  ('N.N.[Cl][Pt][Cl] [CISPLATIN, reference compound]', '200 nL (luminescence)', 1496),
  ('COc1ccc(C(=O)/C=C/c2ccccc2)cc1', '200 nL (luminescence)', 102),
  ('CCCCCCCCCCCCCC(=O)O[C@@H]1[C@@H](C)[C@@]2(O)[C@@H](C=C(CO)C[C@]3(O)C(=O)C(C)=C[C@@H]23)[C@@H]2C(C)(C)[C@]12OC(C)=O [PHORBOLMYRISTATEACETATE, reference compound]', '200 nL (luminescence)', 712);

====

Catalogue of 100 nL (luminescence) readings, one per entry.
Target: Nrf2-Keap1 complex (Homo sapiens)
Test: cell-based
Format: cell-based
Endpoint label: 100 nL (luminescence)

INSERT INTO measurements (compound, endpoint_label, reported) VALUES
  ('Nc1ncnc2c1ncn2[C@@H]1O[C@H](CO)[C@@H](O)[C@H]1O [ADENOSINE, reference compound]', '100 nL (luminescence)', 1100),
  ('O=C1OCCN1/N=C/c1ccc([N+](=O)[O-])o1 [FURAZOLIDONE, reference compound]', '100 nL (luminescence)', 876),
  ('O=C(O)c1cc(O)c2c(c1)[C@@H]([C@H]1c3cc(C(=O)O)cc(O)c3C(=O)c3c(O[C@H]4O[C@H](CO)[C@@H](O)[C@H](O)[C@H]4O)cccc31)c1cccc(O[C@H]3O[C@H](CO)[C@@H](O)[C@H](O)[C@H]3O)c1C2=O [SENNOSIDEA, reference compound]', '100 nL (luminescence)', 3204),
  ('O=C1C=C(O)C(=O)c2ccccc21 [LAWSONE]', '100 nL (luminescence)', 840),
  ('COC(=O)/C=C/C(C)=C\C=C\C(C)=C\C=C\C=C(C)\C=C\C=C(C)\C=C\C(=O)O [BIXIN]', '100 nL (luminescence)', 1880),
  ('NCCc1ccc(O)c(O)c1 [3-HYDROXYTYRAMINE]', '100 nL (luminescence)', 990),
  ('CC(=O)Nc1ccc(O)cc1 [ACETAMINOPHEN, reference compound]', '100 nL (luminescence)', 996);

====

Target: Nrf2-Keap1 complex (Homo sapiens, UniProt Q14145)
Experiment: cell-based
Format: cell-based
API: label(entry) gives t if the entry's Activation 200 nL is strictly smaller than 60%; on equality or larger values it gives f.

INSERT INTO measurements (compound, answer_label) VALUES
  ('CC(=O)NC(C(=O)O)C(C)(C)SN=O (stereo not drawn) [reference compound]', 't'),
  ('CC1(C)C=CC(=O)[C@@]2(C)C1CC(=O)[C@]1(C)C2CC[C@@]2(C)[C@H](c3ccoc3)OC(=O)C3OC321 (stereo partly drawn)', 'f'),
  ('C=C[C@@](C)(O)CCC1C(=C)CCC2[C@@](C)(CO)CCC[C@]12C (stereo partly drawn) [EPI(13)TORULOSOL]', 't'),
  ('CCCCC1C(=O)N(c2ccccc2)N(c2ccc(O)cc2)C1=O (stereo not drawn) [OXYPHENBUTAZONE, reference compound]', 'f'),
  ('CC(C)=CCCC1(C)C=Cc2c(O)c3c(c(CC=C(C)C)c2O1)OC12C(CC4CC1C(C)(C)OC2(C/C=C(/C)C(=O)O)C4O)C3=O (stereo not drawn) [TETRAHYDROGAMBOGICACID]', 'f'),
  ('COc1ccc2c(c1)OCC(=Cc1ccc(O)c(O)c1)C2=O', 'f'),
  ('OC[C@H]1O[C@H]([S-])[C@H](O)[C@@H](O)[C@@H]1O.[Au+] [AUROTHIOGLUCOSE, reference compound]', 't'),
  ('N.N.[Cl][Pt][Cl] [CISPLATIN, reference compound]', 'f'),
  ('CC(=O)O[C@@H]1CC2C(C)(C)C(=O)C3OC3[C@]2(C)C2CC[C@@]3(C)[C@H](c4ccoc4)OC(=O)C4OC43[C@@]21C (stereo partly drawn)', 't'),
  ('CC(=O)O[C@@H]1CC2C(C)(C)C=CC(=O)[C@]2(C)C2CC[C@@]3(C)[C@H](c4ccoc4)OC(=O)C4OC43[C@@]21C (stereo partly drawn)', 'f'),
  ('COc1ccc2c(c1)OCC(Cc1ccc(OC(C)=O)c(OC)c1)C2=O (stereo not drawn)', 'f'),
  ('CC1=C(/C=C/C(C)=C/C=C/C(C)=C\C(=O)O)C(C)(C)CCC1 [ISOTRETINON, reference compound]', 'f'),
  ('CC(=O)O[C@@H]1CC2C(C)(C)[C@H](O)CC[C@]2(C)C2CC[C@@]3(C)[C@H](c4ccoc4)OC(=O)C4OC43[C@@]21C (stereo partly drawn) [alpha-DIHYDROGEDUNOL]', 't'),
  ('C=C1CC[C@H]2O[C@]2(C)CC[C@@H]2[C@@H]1CC2(C)C [CARYLOPHYLLENEOXIDE]', 't');

====

Target: Nrf2-Keap1 complex (Homo sapiens, UniProt Q14145)
Experiment: cell-based
Assay type: cell-based
Settings: 3 h, read-out: Activation 200 nL
Endpoint label: activation at 32 µM (%)

INSERT INTO results (compound, reported) VALUES
  ('COC(=O)/C=C/C(C)=C\C=C\C(C)=C\C=C\C=C(C)\C=C\C=C(C)\C=C\C(=O)O', 113),
  ('Cc1cc(O)ccc1Cl', -5),
  ('CC(C)c1cccc(=O)c(O)c1', 1),
  ('O=C(CCBr)N1CCN(C(=O)CCBr)CC1 [PIPOBROMAN, reference compound]', 185),
  ('O=c1c(O)c(-c2ccccc2)oc2cccc(O)c12 [3,5-DIHYDROXYFLAVONE]', -17),
  ('CC(=O)OC1CC[C@@]2(C)C(CC[C@H]3[C@@H]4CC=C(C(C)=O)[C@@]4(C)C(=O)C[C@@H]32)C1 (stereo partly drawn)', 30),
  ('COc1cc2c(c(OC)c1OC)-c1ccc(OC)c(=O)cc1[C@@H](NC(C)=O)CC2 [COLCHICINE, reference compound]', 24),
  ('CC(=O)NCCc1c[nH]c2ccc(O)cc12', 31),
  ('CC1(C)C2(Cl)C(Cl)C(Cl)C(Cl)(C(Cl)Cl)C1(Cl)C2Cl (stereo not drawn)', 235),
  ('COC(=O)[C@H]1[C@H]2C[C@@H]3c4[nH]c5cc(OC)ccc5c4CCN3C[C@H]2C[C@@H](OC(=O)c2cc(OC)c(OC)c(OC)c2)[C@@H]1OC [RESERPINE, reference compound]', 8),
  ('COc1cc(C/C=C/c2ccccc2)c(OC)cc1O', 50),
  ('CCC(=O)O[C@H]1[C@H](O[C@@H]2[C@@H](C)[C@H](O[C@H]3C[C@@](C)(OC)[C@@H](O)[C@H](C)O3)[C@@H](C)C(=O)O[C@H](CC)[C@@](C)(O)[C@H](O)[C@@H](C)C(=O)[C@H](C)C[C@@]2(C)O)O[C@H](C)C[C@@H]1N(C)C [ERYTHROMYCINESTOLATE, reference compound]', 71);

====

Catalogue of activation at 16 µM readings, one per entry.
Molecular target: Nrf2-Keap1 complex (Homo sapiens)
Test: cell-based
Format: cell-based
Details: 3 h, read-out: Activation 100 nL
Endpoint label: activation at 16 µM (%)

INSERT INTO measurements (compound, reported) VALUES
  ('CCOc1ccc(C(=O)c2ccc(OC)c(O)c2O)cc1', 117),
  ('O=C(O)C(S)C(S)C(=O)O (centres unmarked) [2,3-DIMERCAPTOSUCCINICACID, reference compound]', 238),
  ('COc1ccc(/C=C/C(=O)c2ccc(O)cc2O)cc1 [2′,4′-DIHYDROXY-4-METHOXYCHALCONE]', 246),
  ('O=[N+]([O-])c1cccc2c(Br)n[nH]c12', 30),
  ('S=c1ccss1', 295);

====

Target: Nrf2-Keap1 complex (Homo sapiens, UniProt Q14145)
Test: cell-based
Format: cell-based
Details: Table 2; 200 nL compound; screen run at 16 and 32 μM, 3 hr
Structures can show the parent of a compound that is named as a salt.
Where 200 nL (luminescence) equals or exceeds 2000, the correct label is criterion met; where it does not, the label is criterion not met.

INSERT INTO assay_data (compound, answer_label) VALUES
  ('COC1=CC(=O)C[C@@H](C)[C@]12Oc1c(Cl)c(OC)cc(OC)c1C2=O [GRISEOFULVIN, reference compound]', 'criterion met'),
  ('O=C(/C=C/c1ccc(O)cc1)c1ccccc1O [2′,4-DIHYDROXYCHALCONE]', 'criterion not met'),
  ('CC(C)=CCC[C@@H](C)[C@@H]1CC[C@]2(C)C3=C(CC[C@@]12C)[C@@]1(C)CC[C@H](O)C(C)(C)[C@@H]1CC3', 'criterion met'),
  ('COc1cc([C@@H]2c3cc4c(cc3[C@@H](O[C@@H]3O[C@@H]5CO[C@@H](c6cccs6)O[C@H]5[C@H](O)[C@H]3O)[C@H]3COC(=O)[C@H]23)OCO4)cc(OC)c1O [TENIPOSIDE, reference compound]', 'criterion not met'),
  ('CC(C)=CCCC1(C)C=Cc2c(O)c3c(c(CC=C(C)C)c2O1)OC12C(CC4CC1C(C)(C)OC2(C/C=C(/C)C(=O)O)C4O)C3=O (stereo not drawn) [TETRAHYDROGAMBOGICACID]', 'criterion met'),
  ('COc1cc(O)cc(OC)c1OC [ANTIAROL]', 'criterion met'),
  ('CCOP(=S)(OCC)Oc1nc(Cl)c(Cl)cc1Cl', 'criterion not met'),
  ('CC(=O)Oc1cc2c(cc1OC(C)=O)[C@@H]1c3ccc(OC(C)=O)c(OC(C)=O)c3OC[C@]1(OC(C)=O)C2 [HAEMATOXYLINPENTAACETATE]', 'criterion not met'),
  ('COC(=O)[C@H]1[C@H]2C[C@@H]3c4[nH]c5cc(OC)ccc5c4CCN3C[C@H]2C[C@@H](OC(=O)c2cc(OC)c(OC)c(OC)c2)[C@@H]1OC [RESERPINE, reference compound]', 'criterion not met'),
  ('CCCCC(CC)CNC(=N)NC(=N)NCCCCCCNC(=N)NC(=N)NCC(CC)CCCC (stereo not drawn) [ALEXIDINEHYDROCHLORIDE]', 'criterion not met'),
  ('COc1ccc2c(c1)OCc1c-2oc2cc(OC)ccc12 [DEHYDROVARIABILIN]', 'criterion not met'),
  ('[H]/N=C(\N/C(=N/[H])NCCCCCCNC(=N)NC(=N)Nc1ccc(Cl)cc1)Nc1ccc(Cl)cc1 [CHLORHEXIDINE, reference compound]', 'criterion not met'),
  ('CC(=O)O[C@@H]1C[C@H]2C(C)(C)C(=O)CC[C@]2(C)[C@H]2CC[C@@]3(C)[C@H](c4ccoc4)OC(=O)[C@H]4O[C@]43[C@@]21C [DIHYDROGEDUNIN]', 'criterion met'),
  ('COC(=O)c1cc(OC)c(=O)c2c(OC)c(OC)ccc2c1', 'criterion not met'),
  ('C[C@@H]1C[C@H]2[C@@H]3CCC4=CC(=O)C=C[C@]4(C)[C@@]3(Cl)[C@@H](O)C[C@]2(C)[C@@]1(OC(=O)c1ccco1)C(=O)CCl [MOMETASONEFUROATE, reference compound]', 'criterion met'),
  ('CC1(C)C(=O)CC[C@]2(C)[C@H]3CC[C@]4(C)C(=CC(=O)O[C@H]4c4ccoc4)[C@]3(C)[C@H](O)C[C@@H]12 [DIHYDRO-7-DESACETYLDEOXYGEDUNIN]', 'criterion not met'),
  ('COc1ccc(/C=C/C(=O)c2ccc(O)cc2O)cc1OC [2′,4′-DIHYDROXY-3,4-DIMETHOXYCHALCONE]', 'criterion met'),
  ('CC(=O)Oc1cc(-c2coc3cc(OC(C)=O)c(OC(C)=O)c(OC(C)=O)c3c2=O)cc(OC(C)=O)c1OC(C)=O [IRIGINOLHEXAACEATATE]', 'criterion not met'),
  ('CC(=O)NC(C(=O)O)C(C)(C)SN=O (stereo not drawn) [reference compound]', 'criterion not met'),
  ('COc1cc(/C=C/C(=O)CC(=O)/C=C/c2ccc(O)c(OC)c2)ccc1O', 'criterion not met'),
  ('C[C@@H]1C(=O)O[C@H]2[C@H]1CC[C@@]1(C)C=CC(=O)[C@@]3(C)O[C@@]213 [EPOXY(4,5alpha)-4,5-DIHYDROSANTONIN]', 'criterion met'),
  ('O=c1oc2cc(O)ccc2s1 [TIOXOLONE, reference compound]', 'criterion not met'),
  ('CC(C)CCCC1(C)C=Cc2c(O)c3c(c(CCC(C)C)c2O1)OC12C(CC4CC1C(C)(C)OC2(CCC(C)C(=O)O)C4O)C3=O (stereo not drawn) [DECAHYDROGAMBOGICACID]', 'criterion not met'),
  ('COc1cc(O)c(C(=O)c2ccccc2)cc1O', 'criterion met'),
  ('COc1cc([C@@H]2c3cc4c(cc3[C@H](O)[C@H]3COC(=O)[C@@H]23)OCO4)cc(OC)c1OC', 'criterion not met'),
  ('O=C1C(O)=C(O)C(=O)C(O)=C1O', 'criterion not met'),
  ('CC(=O)O[C@H]1C[C@@H](OC(C)=O)C(C)(C)[C@@H]2CC(=O)[C@]3(C)[C@H](CC[C@@]4(C)[C@H](c5ccoc5)OC(=O)[C@H]5O[C@]543)[C@@]12C', 'criterion met');
